Assay: NCI Yeast Anticancer Drug Screen. Data for the rad50 strain (AID 155);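 also: 0% = growth of vehicle-only cultures of the same strain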
Conditions: S. cerevisiae rad50 strain growth inhibition; at 50.0 µM; stronger effect = higher value
Experimental: Growth inhibition of yeast strains with defined genetic alterations is measured as a screen for potential anti-cancer activity. Selected strains with alterations in DNA damage repair or cell cycle control were exposed to compounds and growth inhibition was measured relative to vehicle treated controls. The strain used in this assay is rad50
The panel holds about 79,000 compounds, 15% with a hit somewhere; the sample as a whole holds those more often.
Recorded metric: growth inhibition (%)
# value in %; strip the unit string

# count of solved cases: 5
[[record]]
compound = "COc1cc(C2c3cc4c(c(OC(=O)c5ccncc5)c3CC3COC(=O)C32)OCO4)cc(OC)c1OC (stereo unspecified)"
reading_unit = "%"
quantitative_result = 1.15

[[record]]
compound = "O=C1CC(c2ccccc2)NCN1 (stereo unspecified)"
reading_unit = "%"
quantitative_result = 3.95

[[record]]
compound = "CC1(C)Oc2ccc3c(=O)cc(-c4ccccc4)oc3c2C1C(=O)O (stereo unspecified)"
reading_unit = "%"
quantitative_result = 4.7

[[record]]
compound = "c1ccc(Sc2cc(Sc3ccccc3)c3cccccc2-3)cc1"
reading_unit = "%"
quantitative_result = 17.9

[[record]]
compound = "CSC(=S)/C(=C/Nc1ccccn1)c1ccccc1"
reading_unit = "%"
quantitative_result = 39.5


Alright, here's another compound for you.
Task item: Provide measured growth inhibition value, entry: CCCCCCCSSCCCCCCC
Reply: -9.85
